# System: NOMO1
# test_details: cell viability relative to DMSO control; higher = less cytotoxic
# measurement_conditions: HPLM + 10% dialyzed FBS; 48 h; 0.0211 µM
We begin with a simple list: items and their reported cell viability.
measurement_label: cell viability (%)

> print(dat)
                                   compound  measurement.label  measurement.units  observed.result
1  N#C/C(=C1/Nc2ccccc2S1)c1ccnc(OCc2ccc(CN3CCOCC3)cc2)n1     cell viability                  %              127
2                   O=C1N\C=N/C2=C1C=N[NH]2     cell viability                  %               97
3  C=CC(=O)Nc1ccc2ncnc(Nc3ccc(OCc4cccc(F)c4)c(Cl)c3)c2c1     cell viability                  %             96.7
4  O=C(NCC1CCOCC1)c1cnc(Nc2ccc(Cl)cc2Cl)nc1C(F)(F)F     cell viability                  %              114
5   COc1cc(Cl)cn2c(-c3cccc(NC4CNC4)n3)cnc12     cell viability                  %              142
6         O=C(NCc1ccccc1)c1csc(Nc2ccncn2)n1     cell viability                  %               94
7  N=C(N)Nc1ccc(C(=O)Oc2ccc3cc(C(=N)N)ccc3c2)cc1     cell viability                  %              100
8  CN(C)CCc1c[nH]c2ccc(C[S+](=O)([O-])N3CCCC3)cc12     cell viability                  %              109
9  COc1ccc(C2(C#N)CCC(C(=O)O)CC2)cc1OC1CCCC1 (centres undefined)     cell viability                  %              116
